Reference for the values: ChEMBL document CHEMBL4152319

// IC50 collected for UniProt:Q72547
Field: numeric (µM). Do not append units.

Q. Annotate the compound COC(=O)c1c(Nc2ccc(-c3ccc(C#N)cc3)cc2)c2nccnc2n(O)c1=O with its measured IC50.
A. 1.77

Q. Look up IC50 of COC(=O)c1c(Nc2cccc(-c3ccc(OC)c(OC)c3)c2)c2nccnc2n(O)c1=O and report it.
A. 4.72

Q. Output measured IC50 for this item: COC(=O)c1c(Nc2cccc(-c3cccc(C#N)c3)c2)c2nccnc2n(O)c1=O
A. 4.02

Q. For the compound COC(=O)c1c(Nc2ccc(-c3ccc(OC)c(OC)c3)cc2)c2nccnc2n(O)c1=O , give its measured IC50 value.
A. 5.9

Q. Give the reported IC50 for this compound. COC(=O)c1c(Nc2cccc(-c3cncnc3)c2)c2nccnc2n(O)c1=O
A. 1.85

Q. Give recorded IC50. COC(=O)c1c(Nc2ccc(-c3ccccc3)cc2)c2nccnc2n(O)c1=O
A. 5.25

Q. Using the record for COC(=O)c1c(Nc2ccc3ccccc3c2)c2nccnc2n(O)c1=O , state its measured IC50.
A. 5.11

Q. # return recorded IC50 for entry COC(=O)c1c(Nc2ccc(-c3cncnc3)cc2)c2nccnc2n(O)c1=O
A. 3.24

Q. // Input: COC(=O)c1c(Nc2cccc(-c3ccc(C#N)cc3)c2)c2nccnc2n(O)c1=O . Output its IC50 only.
A. 5.56

Q. Report measured IC50; entry is CC(C)c1ccc(O)c(=O)c(O)c1 [BETA-THUJAPLICINOL]
A. 2.5

Q. Determine its reported IC50: COC(=O)c1c(Nc2cccc3ccccc23)c2nccnc2n(O)c1=O
A. 4.3

Q. Give a short answer stating reported IC50 for COC(=O)c1c(Nc2ccc(-c3cccc(C#N)c3)cc2)c2nccnc2n(O)c1=O .
A. 13.3

====

assay: Cytotoxicity against human MT4 cells after 5 days by MTT assay; assay type: cell-based
measured metric: CC50 at 120 h (nM)
Answer format: numeric, nM implied, no suffix.

Q. Quickly give me recorded CC50 at 120 h for COC(=O)c1c(Nc2cccc(-c3cncnc3)c2)c2nccnc2n(O)c1=O
A. 5890

Q. Please indicate CC50 at 120 h recorded for COC(=O)c1c(Nc2cccc(-c3ccc(C#N)cc3)c2)c2nccnc2n(O)c1=O
A. 1190

Q. Read off the recorded CC50 at 120 h for COC(=O)c1c(Nc2ccc(-c3cccc(C#N)c3)cc2)c2nccnc2n(O)c1=O
A. 5680

Q. Quote CC50 at 120 h reported for COC(=O)c1c(Nc2cccc(-c3ccc(OC)c(OC)c3)c2)c2nccnc2n(O)c1=O please.
A. 1320

Q. Specify reported CC50 at 120 h for the compound shown: COC(=O)c1c(Nc2ccc(-c3ccc(C#N)cc3)cc2)c2nccnc2n(O)c1=O
A. 340

Q. Output CC50 at 120 h of COC(=O)c1c(Nc2ccc(-c3ccc(OC)c(OC)c3)cc2)c2nccnc2n(O)c1=O
A. 1470

Q. Look up and state reported CC50 at 120 h for COC(=O)c1c(Nc2ccc(-c3ccccc3)cc2)c2nccnc2n(O)c1=O
A. 7000

Q. Supply recorded CC50 at 120 h for COC(=O)c1c(Nc2ccc(-c3cncnc3)cc2)c2nccnc2n(O)c1=O here.
A. 8040

Q. Determine its reported CC50 at 120 h: COC(=O)c1c(Nc2cccc(-c3cccc(C#N)c3)c2)c2nccnc2n(O)c1=O
A. 1160

Q. Supply recorded CC50 at 120 h for COC(=O)c1c(Nc2ccc3ccccc3c2)c2nccnc2n(O)c1=O here.
A. 7150

Q. Assign CC50 at 120 h to the following record: COC(=O)c1c(Nc2cccc3ccccc23)c2nccnc2n(O)c1=O
A. 1380

====

test system: Human immunodeficiency virus 1; experiment: Selectivity ratio of IC50 for HIV-1 BH10 reverse transcriptase RNase H activity to IC50 for recombinant HIV1 integrase strand transfer activity
Threshold check on Ratio IC50: strictly below 2 is label 1; on or above 2 is label 0.

Q. Quick check: Ratio IC50 of COC(=O)c1c(Nc2cccc(-c3cccc(C#N)c3)c2)c2nccnc2n(O)c1=O under 2?
A. label 0

Q. Is 2 strictly greater than the molecule's reported Ratio IC50? molecule: COC(=O)c1c(Nc2cccc(-c3cncnc3)c2)c2nccnc2n(O)c1=O
A. label 1

Q. Dear colleague, could you confirm whether Ratio IC50 of COC(=O)c1c(Nc2cccc(-c3ccc(OC)c(OC)c3)c2)c2nccnc2n(O)c1=O falls below 2? Thanks.
A. label 0

Q. Say whether its Ratio IC50 is strictly beneath 2. Entry: COC(=O)c1c(Nc2ccc(-c3cncnc3)cc2)c2nccnc2n(O)c1=O
A. label 0

Q. Hello, is Ratio IC50 of the following molecule strictly smaller than 2? COC(=O)c1c(Nc2ccc3ccccc3c2)c2nccnc2n(O)c1=O
A. label 1

Q. In the record for COC(=O)c1c(Nc2cccc(-c3ccc(C#N)cc3)c2)c2nccnc2n(O)c1=O , is Ratio IC50 less than 2?
A. label 1

Q. Report whether reported Ratio IC50 is lower than 2 (strictly) for COC(=O)c1c(Nc2ccc(-c3ccc(C#N)cc3)cc2)c2nccnc2n(O)c1=O
A. label 1

====

Give measured log10 IC50 for each item. Keep answers brief.
target: Human immunodeficiency virus type 1 integrase (Human immunodeficiency virus 1, UniProt Q7ZJM1); experiment: Inhibition of recombinant HIV1 integrase strand transfer activity using biotin-labeled double-stranded HIV-1 LTR U5 donor DNA substrate pretreated for 5 mins followed by substrate addition and measured after 30 mins by ELISA
Sequence (Q7ZJM1 whole entry): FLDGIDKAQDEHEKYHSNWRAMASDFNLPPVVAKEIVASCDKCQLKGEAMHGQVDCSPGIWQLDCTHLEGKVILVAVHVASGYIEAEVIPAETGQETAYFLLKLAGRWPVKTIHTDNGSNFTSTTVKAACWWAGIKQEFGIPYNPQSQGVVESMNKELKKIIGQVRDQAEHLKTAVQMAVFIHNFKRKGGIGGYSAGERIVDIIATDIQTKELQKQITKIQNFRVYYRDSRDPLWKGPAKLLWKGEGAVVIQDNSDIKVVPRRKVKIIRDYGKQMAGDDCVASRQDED
A difference of one corresponds to tenfold IC50; all values are log10 with IC50 in µM.

Q. Fill in reported log10 IC50 for this entry: COC(=O)c1c(Nc2cccc(-c3cncnc3)c2)c2nccnc2n(O)c1=O
A. 1.03

Q. Return reported log10 IC50. Input compound: COC(=O)c1c(Nc2ccc3ccccc3c2)c2nccnc2n(O)c1=O
A. 0.83

Q. Entry COC(=O)c1c(Nc2ccc(-c3cncnc3)cc2)c2nccnc2n(O)c1=O needs its log10 IC50 filled in; supply it.
A. 0.17

Q. Return value of log10 IC50 for input COC(=O)c1c(Nc2cccc(-c3ccc(OC)c(OC)c3)c2)c2nccnc2n(O)c1=O , no commentary.
A. -0.66

Q. Supply measured log10 IC50 of COC(=O)c1c(Nc2cccc(-c3ccc(C#N)cc3)c2)c2nccnc2n(O)c1=O in your reply.
A. 1.36

Q. Specify measured log10 IC50 for COC(=O)c1c(Nc2cccc(-c3cccc(C#N)c3)c2)c2nccnc2n(O)c1=O .
A. -0.60

Q. Identify measured log10 IC50 associated with COC(=O)c1c(Nc2ccc(-c3ccc(C#N)cc3)cc2)c2nccnc2n(O)c1=O
A. 0.07
